Exercise: state measured composite z-score for each of the compounds provided.
- Assay Target: Left-right determination factor 2 (Homo sapiens) (UniProt O00292)
- Sequence (O00292 whole entry, looked up): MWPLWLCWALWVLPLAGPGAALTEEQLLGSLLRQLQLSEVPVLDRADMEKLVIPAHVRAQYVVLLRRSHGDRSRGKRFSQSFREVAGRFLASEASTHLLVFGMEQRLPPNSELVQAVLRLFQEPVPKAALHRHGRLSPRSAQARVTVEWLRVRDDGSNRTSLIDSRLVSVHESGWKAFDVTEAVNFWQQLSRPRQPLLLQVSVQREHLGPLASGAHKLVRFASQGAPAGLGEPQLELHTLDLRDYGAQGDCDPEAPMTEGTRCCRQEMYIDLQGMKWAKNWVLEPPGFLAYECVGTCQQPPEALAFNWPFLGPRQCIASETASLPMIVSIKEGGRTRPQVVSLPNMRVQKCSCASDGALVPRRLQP
- Assay Overview: LEFTY2 binders on small-molecule microarrays, primary screen, biochemical, small-molecule microarray, 635 nm fluorescence scan (AID 1110)
- Measurement Setup: LEFTY2 binding, higher = more signal
Give bare numbers.

Here's what some known entries look like.
CCOC(=O)[C@H]1C/C=C/C[C@H](C(=O)OCC)C(=O)O[C@H]2[C@@H](OC)O[C@H](CO)[C@@H](OC(=O)Nc3cccc(F)c3)[C@@H]2OC1=O ... -0.169
C=C(COC)/C(=C/C[C@@H](OC(C)=O)c1ccc(CO)o1)c1cnc2ccccc2c1 ... 1.07
C=C(CCCC)C(=O)CC[C@H](OC(C)=O)c1cccc(OCCO)c1 ... -0.433
COCCOC(=O)N1C(=O)[C@@]2(c3ccccc31)[C@H](c1ccccc1OCCO)N1[C@H](c3ccccc3)[C@H](c3ccccc3)OC(=O)[C@H]1[C@@H]2C(=O)Nc1nc2ccccc2s1 ... 0.531
C=CCC(OC(C)=O)[C@@H]1[C@@H](N(Cc2ccc(-c3cccc(C(F)(F)F)c3)o2)C(=O)Cc2ccc(F)cc2)c2cc(OCCCO)ccc2N1C(=O)Cc1ccc(OC)cc1 (stereo partly drawn) ... -0.665

// input: 5 compounds below; output: composite z-score for each
1. CCCCCC1=C2CNC(CCC)(C(=O)OC)C=C2C(C)C1=O (stereo not drawn)
2. CN1C(=O)C2C=CC(C(O)C3=C[C@H]4C[C@@H](C3)C4(C)C)N(Nc3ccccc3)C2C1=O (stereo partly drawn)
3. CO[C@H]1O[C@H](CO)[C@@H](OC(=O)Nc2ccc(Br)cc2)[C@H](OC(=O)c2cc3ccccc3[nH]2)[C@H]1OC(=O)c1cc2ccccc2[nH]1
4. CC(C)[C@@H](CO)NC(=O)[C@H]1[C@@H](c2ccccc2)N(c2ccccc2)O[C@@H]1C
5. COc1ccc(C(=O)Nc2cccc(CN3C(=O)[C@]4(O[C@H](CCO)[C@@H]([Si](C)(C)c5ccc(OC)cc5)[C@@H]4C)c4ccccc43)c2)cc1

Found:
1. -0.477
2. 0.269
3. -0.132
4. 0.28
5. 0.442

List composite z-score for every entry below, keeping the order given.
1. [N-]=[N+]=NCc1ccccc1C[C@@]1(C(=O)NCC(O)CO)N=C(c2ccc(OCCCO)cc2)O[C@@H]1c1ccccc1N=[N+]=[N-] (stereo partly drawn)
2. COCCOC(=O)N1C(=O)[C@@]2(c3cc(C#CCCO)ccc31)[C@H](c1ccc(OCCO)cc1)N1[C@H](c3ccccc3)[C@H](c3ccccc3)OC(=O)[C@H]1[C@@H]2C(=O)N1CCN(c2ncccn2)CC1
3. C=CCOC(=O)[C@H]1[C@@H]2C(=O)O[C@@H](c3ccccc3)[C@@H](c3ccccc3)N2[C@@H](c2ccc(OCCOC(=O)[C@@H]3C[C@@H]4C(=O)N[C@@H](CCCCN(C)C)C(=O)N4[C@@H]3c3ccc(O)cc3)cc2)[C@]12C(=O)Nc1ccc(I)cc12

Found:
[-0.124, 0.781, 0.698]
